Value source: the RNAGym collection of RNA variant scans (doi:10.1126/science.aae0568)

Field: yeast fitness. Provide a value for each of the variants that follow.
B1: tRNA (parent)
chain: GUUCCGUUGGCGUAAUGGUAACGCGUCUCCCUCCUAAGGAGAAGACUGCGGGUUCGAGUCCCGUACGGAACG

variants of: B1; assay: yeast fitness relative to wild type (ratio to wild type); higher = fitter; tRNA-Arg(CCU), competitive growth, 37 C, YPD
This sample holds only a part of the variants without activity.
Write no unit; give the number alone.

For U8A G10C C11U C24U A42C U47C , write its yeast fitness.
0.777

For C4U C5G C29U G63A A65G , write its yeast fitness.
0.535

For C22G C31G U54G , write its yeast fitness.
0.595

For U13A A20U A37C , write its yeast fitness.
0.557

For A43C A65G , write its yeast fitness.
0.95

For U16A C62A , write its yeast fitness.
0.786

For U7A A57U , write its yeast fitness.
0.572

For G17C A36G A45G , write its yeast fitness.
0.505

For G10A A37U C61G C66G , write its yeast fitness.
0.623

For U47C C61G , write its yeast fitness.
0.671
